# assayed-target: Glucagon Receptor (Homo sapiens, UniProt P47871)
# Sequence (P47871 26-477): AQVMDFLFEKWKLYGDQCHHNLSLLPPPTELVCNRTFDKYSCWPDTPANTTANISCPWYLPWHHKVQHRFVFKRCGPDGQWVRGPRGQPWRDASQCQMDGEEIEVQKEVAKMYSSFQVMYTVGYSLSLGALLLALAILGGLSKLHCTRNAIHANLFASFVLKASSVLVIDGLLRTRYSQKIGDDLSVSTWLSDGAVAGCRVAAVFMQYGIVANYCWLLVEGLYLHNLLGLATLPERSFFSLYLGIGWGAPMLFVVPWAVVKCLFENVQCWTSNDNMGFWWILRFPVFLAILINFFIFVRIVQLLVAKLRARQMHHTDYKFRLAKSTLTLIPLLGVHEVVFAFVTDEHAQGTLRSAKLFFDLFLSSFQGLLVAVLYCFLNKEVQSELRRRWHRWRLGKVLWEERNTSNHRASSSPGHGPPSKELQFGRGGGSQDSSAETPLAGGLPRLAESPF
# protocol-text: Glucagon receptor binding assay (scintillation proximity competition binding)
# test-context: Table 7; average ±STD, at least three experiments
Ends that are not written are not given here.
assay-endpoint: IC50 (nM)
Answers are plain numbers, in nM.

                                  substance  assay_endpoint  unit  observed_value
0  GTFTSEYSKYLDSRRAQDFVQWLMNT-NH2 [[Glu^9]Glucagon(aa4-29)-NH2]            IC50    nM             136

// below: IC50 requested for another substance
Exercise: Quick one: IC50 of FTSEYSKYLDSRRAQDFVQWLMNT-NH2 [[Glu^9]Glucagon(aa6-29)-NH2] ?
Key: 36.4
